molecular target: Cx43 HCs (Homo sapiens, UniProt P17302); construct: expressed in transfected cells; assay: Cx43-dependent growth complementation assay in E. coli LB2003; type: cell-based; settings: IC50 Cx26/IC50 Cx43; Table 5
Sequence (P17302 whole entry): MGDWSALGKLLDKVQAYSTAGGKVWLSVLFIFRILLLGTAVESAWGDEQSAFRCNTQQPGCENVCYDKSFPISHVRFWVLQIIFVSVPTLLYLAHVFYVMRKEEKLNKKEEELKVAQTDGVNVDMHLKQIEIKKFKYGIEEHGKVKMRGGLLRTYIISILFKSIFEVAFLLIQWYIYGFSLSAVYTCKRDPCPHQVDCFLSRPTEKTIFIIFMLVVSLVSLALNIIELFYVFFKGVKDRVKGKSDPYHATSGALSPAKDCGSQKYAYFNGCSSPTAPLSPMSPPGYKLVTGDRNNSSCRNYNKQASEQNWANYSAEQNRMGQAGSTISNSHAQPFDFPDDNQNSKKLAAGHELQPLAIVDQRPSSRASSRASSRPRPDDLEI
METRIC_NAME: Cx43/Cx26 Selectivity

Worked examples, 4 compounds total:
Incoming: Data request, read-out Cx43/Cx26 Selectivity, for Cc1ccc(COCC2OC(OC3C(N)CC(N)C(OC4OC(CN)C(O)C(O)C4O)C3O)C(O)C(N)C2OCc2ccc(C)cc2)cc1 (centres unmarked)
Outgoing: 1.39

Incoming: Any idea what its Cx43/Cx26 Selectivity is? The compound is CCCCCCCCOC[C@H]1OC(O[C@@H]2C(N)CC(N)C(O[C@H]3OC(CN)[C@@H](O)[C@H](O)C3O)[C@@H]2O)[C@H](O)[C@H](N)C1OCCCCCCCC (some centres unmarked)
Outgoing: 1.19

Incoming: Bench note: what Cx43/Cx26 Selectivity did NC[C@H]1O[C@H](O[C@H]2[C@H](O)[C@@H](O[C@@H]3O[C@H](COCc4ccc(F)cc4)[C@@H](OCc4ccc(F)cc4)[C@H](N)[C@H]3O)[C@H](N)C[C@@H]2N)[C@H](O)[C@@H](O)[C@@H]1O show?
Outgoing: 0.30

Incoming: // query Cx43/Cx26 Selectivity value for entry NCC1OC(OC2C(N)CC(N)C(OC3OC(COCc4ccc(Cl)cc4)C(OCc4ccc(Cl)cc4)C(N)C3O)C2O)C(O)C(O)C1O (centres unmarked)
Outgoing: 0.15

Attention now turns to another entry.
Incoming: Cx43/Cx26 Selectivity for NCC1OC(OC2C(N)CC(N)C(OC3OC(COCc4ccc5ccccc5c4)C(OCc4ccc5ccccc5c4)C(N)C3O)C2O)C(O)C(O)C1O (centres unmarked) ?
Outgoing: 1.07
